B1: CCDC6 (parent)
chain: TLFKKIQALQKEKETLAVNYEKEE

variants of: B1; assay: protein stability index of a GFP-peptide fusion (GPS, HEK-293T) (PSI 1-6); higher = more stable; settings: c terminus: a fixed tail appended;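 also: lentivirally expressed fusions sorted by FACS into six bins by GFP to DsRed ratio, PSI derived from sequencing read proportions per bin multiplied by bin number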
Each record gets a class by protein stability index: lower level: < 3; middle level: ≥ 3 and < 4; upper level: ≥ 4

{"columns": ["record_sequence", "assigned_category"],
 "data": [
  ["TLFKKIQALDKEKETLAVNYEKEE [Q10D]", "upper level"]
]}

Sort QLFKKIQALQKEKETLAVNYEKEE [T1Q] into one of the categories.
lower level

Sort TVFKKIQALQKEKETLAVNYEKEE [L2V] into one of the categories.
middle level

Sort TLFKKIQALQKEKETLLVNYEKEE [A17L] into one of the categories.
lower level
